Tested on: DLD-1
run description: MTS assay, DLD-1 cells
Assay type: cell-based
study conditions: Homo sapiens, 72 hours, read-out: DLD-1, MTS cell kill % inhibition
measured metric: inhibition at 10 µM

- O=C(NCCCN1CCOCC1)c1ccc2[nH]c(-c3ccc[nH]c3=O)c(-c3ccc(F)cc3)c2c1: < 50%
- CN(C)CCCN(C)C(=O)c1ccc2[nH]c(-c3ccc[nH]c3=O)c(-c3ccccc3)c2c1: 50 to 79%
- CN(CCc1ccccc1)C(=O)c1ccc2[nH]c(-c3ccc[nH]c3=O)c(-c3ccc(-c4ccccc4)cc3)c2c1: 50 to 79%
- O=C(NCc1ccccc1)c1ccc2[nH]c(-c3ccc[nH]c3=O)c(-c3ccc(-c4ccccc4)cc3)c2c1: < 50%
- CCOC(=O)N1CCN(C(=O)c2ccc3[nH]c(-c4ccc[nH]c4=O)c(-c4ccccc4)c3c2)CC1: 50 to 79%
- O=C(c1ccc2[nH]c(-c3ccc[nH]c3=O)c(-c3ccc(-c4ccccc4)cc3)c2c1)N1CCN(CCN2CCOCC2)CC1: 80 to 100%
- CN(C)CCCN(C)C(=O)c1ccc2[nH]c(-c3ccc[nH]c3=O)c(-c3ccc(-c4ccccc4)cc3)c2c1: 80 to 100%

====

target entity: IGF-1R (Homo sapiens, UniProt P08069)
Sequence (P08069 31-1367): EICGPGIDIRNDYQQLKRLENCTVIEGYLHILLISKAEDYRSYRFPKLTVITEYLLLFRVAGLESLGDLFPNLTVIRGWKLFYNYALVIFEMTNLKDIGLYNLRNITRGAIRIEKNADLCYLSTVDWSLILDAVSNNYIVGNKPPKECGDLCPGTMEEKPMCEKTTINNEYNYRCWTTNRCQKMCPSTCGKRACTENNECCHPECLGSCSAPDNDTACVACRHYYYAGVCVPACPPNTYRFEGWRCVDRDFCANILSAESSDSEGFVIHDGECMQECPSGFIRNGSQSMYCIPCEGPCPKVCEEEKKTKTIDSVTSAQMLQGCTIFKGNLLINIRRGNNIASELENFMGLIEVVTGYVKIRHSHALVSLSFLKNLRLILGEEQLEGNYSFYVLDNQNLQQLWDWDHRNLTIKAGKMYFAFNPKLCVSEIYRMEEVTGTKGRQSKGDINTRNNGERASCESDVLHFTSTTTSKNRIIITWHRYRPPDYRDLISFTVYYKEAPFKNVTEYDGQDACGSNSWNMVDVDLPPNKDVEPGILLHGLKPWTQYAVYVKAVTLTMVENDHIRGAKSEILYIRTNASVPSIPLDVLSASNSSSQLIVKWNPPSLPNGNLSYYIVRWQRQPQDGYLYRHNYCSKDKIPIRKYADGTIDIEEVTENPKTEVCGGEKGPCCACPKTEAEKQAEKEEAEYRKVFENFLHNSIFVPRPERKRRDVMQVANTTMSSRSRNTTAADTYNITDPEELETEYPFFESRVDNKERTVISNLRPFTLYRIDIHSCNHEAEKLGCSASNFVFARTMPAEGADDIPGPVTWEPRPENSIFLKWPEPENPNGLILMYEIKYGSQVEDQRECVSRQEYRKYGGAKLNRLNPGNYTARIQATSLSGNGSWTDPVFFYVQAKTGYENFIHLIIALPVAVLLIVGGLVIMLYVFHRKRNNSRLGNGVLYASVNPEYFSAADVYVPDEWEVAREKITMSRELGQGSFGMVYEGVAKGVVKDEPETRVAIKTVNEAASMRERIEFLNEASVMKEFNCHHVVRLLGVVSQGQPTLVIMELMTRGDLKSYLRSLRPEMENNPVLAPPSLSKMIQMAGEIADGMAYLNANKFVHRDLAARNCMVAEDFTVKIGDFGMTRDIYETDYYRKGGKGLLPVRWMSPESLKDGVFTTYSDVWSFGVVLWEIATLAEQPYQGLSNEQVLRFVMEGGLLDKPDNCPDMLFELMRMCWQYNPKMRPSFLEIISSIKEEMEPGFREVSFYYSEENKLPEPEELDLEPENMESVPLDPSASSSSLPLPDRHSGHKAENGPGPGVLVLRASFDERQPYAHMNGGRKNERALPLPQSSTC
run description: IGFR1 activity assay (ELISA)
Format: biochemical
study conditions: read-out: IGF-1R, PCT INH (30 μM), ELISA
measured metric: inhibition at 30 µM

• O=C(Nc1cccc(Cl)c1)c1ccc2[nH]c(-c3ccc[nH]c3=O)c(-c3ccccc3)c2c1 = 50 to 79%
• CN(C)CCCN(C)C(=O)c1ccc2[nH]c(-c3ccc[nH]c3=O)c(-c3ccccc3)c2c1 = 80 to 100%
• O=C(c1ccc2[nH]c(-c3ccc[nH]c3=O)c(-c3ccccc3)c2c1)N1CCc2ccccc2C1 = 80 to 100%
• O=C(NCCCN1CCOCC1)c1ccc2[nH]c(-c3ccc[nH]c3=O)c(-c3csc4ccccc34)c2c1 = 80 to 100%
• O=C(c1ccc2[nH]c(-c3ccc[nH]c3=O)c(-c3ccc(-c4ccccc4)cc3)c2c1)N1CCN(Cc2ccccn2)CC1 = 50 to 79%
• O=C(Nc1ccccc1F)c1ccc2[nH]c(-c3ccc[nH]c3=O)c(-c3ccccc3)c2c1 = 80 to 100%
• CN(Cc1cccnc1)C(=O)c1ccc2[nH]c(-c3ccc[nH]c3=O)c(-c3ccc(-c4ccccc4)cc3)c2c1 = < 50%

====

Test system: KATO III
run description: MTS assay, KATO III cells
Format: cell-based
study conditions: Homo sapiens, 72 hours, read-out: KATO III, MTS cell kill % inhibition
Recorded inhibition at 10 µM by entry
measured metric: inhibition at 10 µM

* CN1CCCC1CCNC(=O)c1ccc2[nH]c(-c3ccc[nH]c3=O)c(-c3ccccc3)c2c1 (stereo not drawn) [Compound 5] | 80 to 100%
* O=C(NCc1ccc(F)cc1F)c1ccc2[nH]c(-c3ccc[nH]c3=O)c(-c3ccc(-c4ccccc4)cc3)c2c1 [Compound 34] | 80 to 100%
* O=C(NCCCN1CCOCC1)c1ccc2[nH]c(-c3ccc[nH]c3=O)c(Br)c2c1 [Compound 56] | < 50%
* O=c1[nH]cccc1-c1[nH]c2ccccc2c1C1CCN(Cc2cccc3ccccc23)CC1 [Compound 88] | < 50%
* CN(Cc1cccnc1)C(=O)c1ccc2[nH]c(-c3ccc[nH]c3=O)c(-c3ccc(-c4ccccc4)cc3)c2c1 [Compound 33] | 80 to 100%
* CN(C)CCCN(C)C(=O)c1ccc2[nH]c(-c3ccc[nH]c3=O)c(-c3ccc(-c4ccccc4)cc3)c2c1 [Compound 46] | 80 to 100%
* CN(C)CCCNC(=O)c1ccc2[nH]c(-c3ccc[nH]c3=O)c(-c3ccc(-c4ccccc4)cc3)c2c1 [Compound 49] | 80 to 100%
* O=C(Nc1ccccc1F)c1ccc2[nH]c(-c3ccc[nH]c3=O)c(-c3ccccc3)c2c1 [Compound 15] | 80 to 100%
* COc1cc2c(cc1OC)CN(C(=O)c1ccc3[nH]c(-c4ccc[nH]c4=O)c(-c4ccccc4)c3c1)CC2 [Compound 21] | 80 to 100%
* O=C(NCCCN1CCOCC1)c1ccc2[nH]c(-c3ccc[nH]c3=O)c(-c3cc4cccc5c4n3CCC5)c2c1 [Compound 8] | 80 to 100%
* O=C(c1ccc2[nH]c(-c3ccc[nH]c3=O)c(-c3ccccc3)c2c1)N1CCN(c2cnccn2)CC1 [Compound 25] | 80 to 100%
* O=C(NCCCN1CCOCC1)c1ccc2[nH]c(-c3ccc[nH]c3=O)c(-c3cc(F)ccc3F)c2c1 [Compound 60] | 80 to 100%
* O=C(c1ccc2[nH]c(-c3ccc[nH]c3=O)c(-c3ccccc3)c2c1)N1CCCCC1 [Compound 17] | 80 to 100%
* O=C(NCc1ccccn1)c1ccc2[nH]c(-c3ccc[nH]c3=O)c(-c3ccc(-c4ccccc4)cc3)c2c1 [Compound 42] | 80 to 100%
* O=C(NCCOc1ccccc1)c1ccc2[nH]c(-c3ccc[nH]c3=O)c(-c3ccc(-c4ccccc4)cc3)c2c1 [Compound 51] | < 50%
* O=C(Nc1cccc(Cl)c1)c1ccc2[nH]c(-c3ccc[nH]c3=O)c(-c3ccccc3)c2c1 [Compound 22] | 80 to 100%
* CCN(CC)CCCNC(=O)c1ccc2[nH]c(-c3ccc[nH]c3=O)c(-c3ccccc3)c2c1 [Compound 2] | 80 to 100%
* Cc1ccc(-c2c(-c3ccc[nH]c3=O)[nH]c3ccc(C(=O)NCCCN4CCOCC4)cc23)cc1F [Compound 67] | 80 to 100%
* O=C(NCCCN1CCOCC1)c1ccc2[nH]c(-c3ccc[nH]c3=O)cc2c1 [Compound 55] | < 50%
* O=C(Nc1ccc(F)cc1Cl)c1ccc2[nH]c(-c3ccc[nH]c3=O)c(-c3ccccc3)c2c1 [Compound 18] | 50 to 79%
* O=C(c1ccc2[nH]c(-c3ccc[nH]c3=O)c(-c3ccccc3)c2c1)N1CCc2ccccc2C1 [Compound 28] | 80 to 100%
* COc1ccc(-c2c(-c3ccc[nH]c3=O)[nH]c3ccc(C(=O)NCCCN4CCOCC4)cc23)c(OC)c1 [Compound 81] | < 50%
* CN(C)CCCN(C)C(=O)c1ccc2[nH]c(-c3ccc[nH]c3=O)c(-c3ccccc3)c2c1 [Compound 27] | 80 to 100%
* CN(CCc1ccccc1)C(=O)c1ccc2[nH]c(-c3ccc[nH]c3=O)c(-c3ccccc3)c2c1 [Compound 23] | 80 to 100%
* O=C(c1ccc2[nH]c(-c3ccc[nH]c3=O)c(-c3ccc(-c4ccccc4)cc3)c2c1)N1CCN(c2cnccn2)CC1 [Compound 45] | 80 to 100%
* O=C(NCc1ccc(F)cc1F)c1ccc2[nH]c(-c3ccc[nH]c3=O)c(-c3ccccc3)c2c1 [Compound 10] | 80 to 100%
* Cc1cc(C)cc(-c2c(-c3ccc[nH]c3=O)[nH]c3ccc(C(=O)NCCCN4CCOCC4)cc23)c1 [Compound 70] | 80 to 100%
* O=c1[nH]cccc1-c1[nH]c2ccccc2c1-c1ccccc1 [Compound 84] | 80 to 100%
* CN(CCc1ccccc1)C(=O)c1ccc2[nH]c(-c3ccc[nH]c3=O)c(-c3ccc(-c4ccccc4)cc3)c2c1 [Compound 43] | 50 to 79%
* O=C(c1ccc2[nH]c(-c3ccc[nH]c3=O)c(-c3ccc(-c4ccccc4)cc3)c2c1)N1CCN(c2ccccc2F)CC1 [Compound 36] | < 50%

====

System: KATO III
run description: MTS assay, KATO III cells
Assay type: cell-based
study conditions: Homo sapiens, 72 hours, read-out: KATO III, MTS cell kill % inhibition
Recorded inhibition at 10 µM by entry
measured metric: inhibition at 10 µM

- CCc1ccc(-c2c(-c3ccc[nH]c3=O)[nH]c3ccc(C(=O)NCCCN4CCOCC4)cc23)cc1 [Compound 65]: 80 to 100%
- O=C(c1ccc2[nH]c(-c3ccc[nH]c3=O)c(-c3ccc(-c4ccccc4)cc3)c2c1)N1CCc2ccccc2C1 [Compound 47]: 50 to 79%
- O=C(c1ccc2[nH]c(-c3ccc[nH]c3=O)c(-c3ccc(-c4ccccc4)cc3)c2c1)N1CCCCC1 [Compound 38]: 80 to 100%
- CC(C)Oc1ccc(-c2c(-c3ccc[nH]c3=O)[nH]c3ccc(C(=O)NCCCN4CCOCC4)cc23)cc1 [Compound 66]: 80 to 100%
- CC(C)c1cccc(-c2c(-c3ccc[nH]c3=O)[nH]c3ccc(C(=O)NCCCN4CCOCC4)cc23)c1 [Compound 71]: 80 to 100%
- CN(C(=O)c1ccc2[nH]c(-c3ccc[nH]c3=O)c(-c3ccccc3)c2c1)c1ccc(F)cc1 [Compound 20]: 80 to 100%
- COc1cccc(CCNC(=O)c2ccc3[nH]c(-c4ccc[nH]c4=O)c(-c4ccccc4)c3c2)c1OC [Compound 19]: 80 to 100%
- CCOC(=O)N1CCN(C(=O)c2ccc3[nH]c(-c4ccc[nH]c4=O)c(-c4ccc(-c5ccccc5)cc4)c3c2)CC1 [Compound 44]: 80 to 100%
- O=C(NCCCN1CCOCC1)c1ccc2[nH]c(-c3ccc[nH]c3=O)c(-c3ccc(F)c(F)c3)c2c1 [Compound 61]: 80 to 100%
- CCOC(=O)N1CCN(C(=O)c2ccc3[nH]c(-c4ccc[nH]c4=O)c(-c4ccccc4)c3c2)CC1 [Compound 24]: 80 to 100%
- O=C(NCCCn1ccnc1)c1ccc2[nH]c(-c3ccc[nH]c3=O)c(-c3ccccc3)c2c1 [Compound 6]: 80 to 100%
- COc1cccc(-c2c(-c3ccc[nH]c3=O)[nH]c3ccc(C(=O)NCCCN4CCOCC4)cc23)c1 [Compound 63]: 80 to 100%
- O=c1[nH]cccc1-c1[nH]c2ccccc2c1C1CCN(Cc2ccccc2)CC1 [Compound 85]: < 50%
- O=C(NCCOc1ccccc1)c1ccc2[nH]c(-c3ccc[nH]c3=O)c(-c3ccccc3)c2c1 [Compound 31]: 80 to 100%
- O=c1[nH]cccc1-c1[nH]c2ccccc2c1C1CCN(S(=O)(=O)c2ccccc2)CC1 [Compound 86]: < 50%

Taken from patent US8410144B2.
